- Test system: PPARg DBDmut IVT, anti-PPARg (DBD mutation: PPARg1 K132A/R137A, NR concentration 270 nM)
- protocolSummary: PBM binding z-score (relative to random genomic background probes); higher = stronger binding; sequences stand for … in GC…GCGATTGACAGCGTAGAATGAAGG
endpoint: PBM binding z-score

The examples below pair each entry with its known result.
> print(dat)
                       primarysequence             endpoint  result
 1  CAAACTAGGTCACAGAGGTCAAAGACCGTGCGTA  PBM binding z-score    2.78
 2  TAGCCTAGGTCATTGGGCCAGTATGGTACGCATC  PBM binding z-score   0.266
 3  CCGACTGGGGCAAAGCTTACCATACTCAGTACGA  PBM binding z-score  -0.457
 4  TCTAGTTGGTCACGTAGGTCACACACGACGGGTA  PBM binding z-score   0.772
 5  AGATGTAGGTTATCGGGTCATTCAGTTTGCGCAT  PBM binding z-score    1.82
 6  ATCGAAAGGTCGACGAGGTGAGCATACACCGTTT  PBM binding z-score   0.825
 7  CCTACTGGGCCACGAAAGGTCATGGATTCAGTGA  PBM binding z-score  -0.148
 8  CGTCCAAGGTCATAGTAGGTCAGTGAAGACAGAT  PBM binding z-score  -0.159
 9  TCTCGGAGGACACGAAAGGTCAGACCTCGACATC  PBM binding z-score  -0.512
10  TCTTGTAGATCAACAGGAGGTTAGGAAAGATCGA  PBM binding z-score    0.48

Now turn to the next sequence.
Write down PBM binding z-score measured for item TAACCAAGGTGAAGGTCGTTGATCCCTCTGTAGA
-0.741

----------
- Test system: PPARg:RXRa 30nM:10nM, anti-RXR (NR concentration 30 nM, RXRa partner concentration 10 nM)
- protocolSummary: PBM binding z-score (relative to random genomic background probes); higher = stronger binding; sequences stand for … in GC…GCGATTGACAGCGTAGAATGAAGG
Rule: PBM binding z-score of 5 or more gives label 1; anything lower gives label 0.

Check out these entries, answers already filled in.
> print(dat)
                      primarysequence                                       tgt  assignedclass
1  TCTAGATGGTCACGGAGGTCACACACGACGGGTA  PPARg:RXRa 30nM:10nM, anti-RXR (NR concentration 30 nM, RXRa partner concentration 10 nM)        label 0
2  GGAACGAGGGCAAAGTTGATAGTATCTGTCGACG  PPARg:RXRa 30nM:10nM, anti-RXR (NR concentration 30 nM, RXRa partner concentration 10 nM)        label 1
3  CCAGACAGGTGAAAGGTAACACAGTCTGGTACGC  PPARg:RXRa 30nM:10nM, anti-RXR (NR concentration 30 nM, RXRa partner concentration 10 nM)        label 0
4  ACGAGCAGGCCAAGGGTCACTCAAGATTAGTCCG  PPARg:RXRa 30nM:10nM, anti-RXR (NR concentration 30 nM, RXRa partner concentration 10 nM)        label 0

I'd appreciate it if you could say whether CAAACTAGGTCACCGGAACGTCAAAGTCCGCATG has PBM binding z-score at least equal to 5.
label 0

Item TCTTGTAGATCATTAGAGGTTAAGAAAGTGCGCT with PBM binding z-score of 5 or above?
label 0

# bool: PBM binding z-score of TTACCAAGGTGAGCTGAGGTCGTTTATCCAACTC >= 5
label 0

Check this sequence for PBM binding z-score at or above 5: ACTGGGAGGACAAAGGTCAGAGCTACGCCAGTGA
label 1

Test whether the sequence AGAACGAGGGCTCGCTGAGTTGATAGCAGAGTAG records PBM binding z-score of 5 or higher.
label 0

Does PBM binding z-score meet or surpass 5 for ACTTGCAGGCCAAGTTTGGGTCACTCAAACAAAG ?
label 0

Assess whether reported PBM binding z-score for ATACCAAGGTGATCGTGAGATCGTTGATACTAAC sits at 5 or higher.
label 0

----------
- System: RARb:RXRa (NR concentration 270 nM, RXRa partner concentration 90 nM)
- protocolSummary: PBM binding z-score (relative to random genomic background probes); higher = stronger binding; sequences stand for … in GC…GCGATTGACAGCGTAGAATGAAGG
endpoint: PBM binding z-score
Kindly provide the number alone.

# count of solved cases: 5
> print(dat)
                      primarysequence                                       tgt             endpoint  numericreadout
1  AGAATGAGGTTATTAAGGTCAGGGAATTGCGGTC  RARb:RXRa (NR concentration 270 nM, RXRa partner concentration 90 nM)  PBM binding z-score            3.79
2  ACTATTAGGTGAGACGAGGGCAACCGATAGGTTG  RARb:RXRa (NR concentration 270 nM, RXRa partner concentration 90 nM)  PBM binding z-score            1.64
3  CCGTCTGGGGCAAAGGTTACCATACTCAGTACGA  RARb:RXRa (NR concentration 270 nM, RXRa partner concentration 90 nM)  PBM binding z-score             2.5
4  CCCAGCAGGCCAATCTGGGTCACTCAAGGCTTGA  RARb:RXRa (NR concentration 270 nM, RXRa partner concentration 90 nM)  PBM binding z-score            1.63
5  AATACAGGGTCATCGTAGTCCAGAGTACGCACAG  RARb:RXRa (NR concentration 270 nM, RXRa partner concentration 90 nM)  PBM binding z-score            4.73

Then there is this sequence:
For the sequence CCGACTGGGGCAGGAAGGTTACCATACCATCCGG , report PBM binding z-score.
0.913

----------
- Test system: PPARg:RXRa 30nM:10nM, anti-RXR (NR concentration 30 nM, RXRa partner concentration 10 nM)
- protocolSummary: PBM binding z-score (relative to random genomic background probes); higher = stronger binding; sequences stand for … in GC…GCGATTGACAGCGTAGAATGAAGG
endpoint: PBM binding z-score
Would you mind answering with just the numeric figure?

> print(dat)
                      primarysequence             endpoint  numericreadout
1  AGAATGAGGTTATACGTAGAACAGGGAAGAAAGT  PBM binding z-score            1.07
2  TAGCCTAGGGCATGGGCCAGTATACCACGCGAAC  PBM binding z-score          -0.115
3  TCGAGTAGGTAAGGGGCATTCAGAATGGCGTCGA  PBM binding z-score            1.19

GET PBM binding z-score where system = PPARg:RXRa 30nM:10nM, anti-RXR (NR concentration 30 nM, RXRa partner concentration 10 nM) and item = ATACCAAGGAGATCGTGAGGTCGTTGATACTAAC
-0.0699

Fetch value of PBM binding z-score on PPARg:RXRa 30nM:10nM, anti-RXR (NR concentration 30 nM, RXRa partner concentration 10 nM) for GCTTACGGGTCAAAGGTTATAGCGTGAATAGAAT .
9.52

Specify the recorded PBM binding z-score for GCTAGTTGGTCAGTATAAGGTCACACACCGGTCG , system: PPARg:RXRa 30nM:10nM, anti-RXR (NR concentration 30 nM, RXRa partner concentration 10 nM).
0.612

----------
- Tested on: RXRa DBDmut IVT, anti-RXR (DBD mutation: RXRa K156A/R161A, NR concentration 90 nM)
- protocolSummary: PBM binding z-score (relative to random genomic background probes); higher = stronger binding; sequences stand for … in GC…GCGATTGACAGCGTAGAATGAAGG
endpoint: PBM binding z-score
Reply briefly: the number, and no unit.

Reference set, count: 10
> print(dat)
                       primarysequence             endpoint  numericreadout
 1  TCTTGTAGATCAACAGGAGGTTAAGAAGGATCGA  PBM binding z-score            0.27
 2  CGTCCAAAGTCAGCAGGTCAGTGAAAGCGACGTG  PBM binding z-score           0.597
 3  AGAATGAGGTTATTAAGTTCAGGGAATTGCGGTC  PBM binding z-score            3.07
 4  CCTGCTAGGTCATGGTCAGCTTATCTACAGTATG  PBM binding z-score            1.86
 5  ACTAGCAGGCCAAGGGGCACTCAAGATTAGTCCG  PBM binding z-score        -0.00995
 6  AGATTGAGGTTATACGTAGATCAGGGAAGAAAGT  PBM binding z-score            1.28
 7  ACTATTAGTTGAGACGAGTGCAACCGATAGGTTG  PBM binding z-score            0.58
 8  TGAATGAGGTCATAAGATCAGGGAACGTTGCAAA  PBM binding z-score            3.74
 9  TTACCAAGGTGAAGGTTGTTGATCCCTCTGTAGA  PBM binding z-score          -0.157
10  CCGAGTAGCTTATGGGGCATTCAGGCAACGGTGA  PBM binding z-score          0.0685

Give PBM binding z-score; test system RXRa DBDmut IVT, anti-RXR (DBD mutation: RXRa K156A/R161A, NR concentration 90 nM); sequence AGAACGAGGGCACGTTGAGTTGATAGCAGAGTAG
1.8

Enter measured PBM binding z-score, system RXRa DBDmut IVT, anti-RXR (DBD mutation: RXRa K156A/R161A, NR concentration 90 nM), for the sequence shown: ACCATTAGTTGACTTAGGGCAACCGATACGACGC
0.744

Report value: PBM binding z-score, system: RXRa DBDmut IVT, anti-RXR (DBD mutation: RXRa K156A/R161A, NR concentration 90 nM), sequence: CGAACGAGGGCATGATTTGATAGCAAATGCCGAT
1.99

Recall the reported PBM binding z-score of ACTCTGAGGACAAAGGTCAGAGCTACGCCAGTGA when tested on RXRa DBDmut IVT, anti-RXR (DBD mutation: RXRa K156A/R161A, NR concentration 90 nM).
2.07
